# System: U2OS
# Procedure Details: Multiplex assay against U2OS
# Type: toxicity, cell-based
# Condition Notes: human, 48 h, 10 µM, compound concentration 10 uM, replicate 2
Population Membrane Permeable-Phenotype (%) listing for selected molecules.
Output spec: scalar in %, unitless text.

Past entries and their recorded results:
| Molecule | Measurement Unit | Observed Measurement |
| --- | --- | --- |
| COc1cc(C(=O)N(CCCc2ccccc2)Cc2ccc(CC(=O)O)cc2)cc(OC)c1C | % | 8 |
| O=C(O)c1cc2ccccc2c(Cc2c(O)c(C(=O)O)cc3ccccc23)c1O | % | 6 |
| Oc1c(CN2CCN(c3ccccn3)CC2)cc(Cl)c2cccnc12 | % | 12 |
| CCCC(CCC)C(=O)O | % | 9 |
| CN1CCN(c2nc3cc(C(F)(F)F)ccc3n3cccc23)CC1.O=C(O)/C=C\C(=O)O.O=C(O)/C=C\C(=O)O | % | 10 |
| CCNC1(C(N)=O)CCN(c2ncnc3c2nc(-c2ccccc2Cl)n3-c2ccc(Cl)cc2)CC1 | % | 43 |
| CNC[C@H](O)c1ccc(O)c(O)c1 [EPINEPHRINE] | % | 24 |
| Cl.Clc1ccc2nsnc2c1NC1=NCCN1 [TIZANIDINE HYDROCHLORIDE] | % | 15 |

(Q) Recorded Population Membrane Permeable-Phenotype (%) for "Cc1ccc(/C(=C\CN2CCCC2)c2ccccn2)cc1" , please?
(A) 9

Values compiled from ChEMBL document CHEMBL5058577.
